Values compiled from patent US20240116985A1.

assay: Solubility in PBS; assay type: physicochemical; conditions: Solubility (uM)
Quantity: Solubility (µM)
The figure you give is taken to be in µM; do not add the unit.

Sample answers from the record:
Compound	Measurement units	Solubility
CC(=O)N1CCC[C@]12CC=CCCCC1(CCCC=CCCCOC(=O)N3CC[C@@](C(=O)N[C@@H](Cc4ccsc4)C(=O)N[C@@H](Cc4csc5ccccc45)C(=O)N[C@@H](CCC(N)=O)C(N)=O)(C3)NC(=O)[C@H](CC(N)=O)NC(=O)[C@H](Cc3ccccc3)NC(=O)[C@H](CCCCNC(=O)c3ccc(CN4CCOCC4)cc3)NC(=O)[C@H](C)NC(=O)[C@H](CC(=O)O)NC(=O)[C@H](CC(=O)O)NC1=O)NC(=O)[C@H](CC(C)(C)C)NC(=O)[C@H](CC(=O)O)NC2=O (stereo partly drawn) [I-890]	µM	40
CC(=O)N1CCC[C@]12CC=CCCCC1(CCCC=CCCCCCC[C@@](C)(C(=O)N[C@@H](Cc3cccc(F)c3)C(=O)N[C@@H](Cc3csc4ccccc34)C(=O)N[C@@H](CCC(N)=O)C(N)=O)NC(=O)[C@H](C)NC(=O)[C@H](Cc3ccccc3)NC(=O)[C@H](C)NC(=O)[C@H](C)NC(=O)[C@H](CCC(=O)O)NC(=O)[C@H](CC(=O)O)NC1=O)NC(=O)[C@H](C)NC(=O)[C@H](CC(=O)O)NC2=O (stereo partly drawn) [I-372]	µM	44

Now let's try a different one.
For CC(=O)N1CCC[C@]12CC=CCCCC1(CCCC=CCCCOC(=O)N3CC[C@@](C(=O)N[C@@H](Cc4ccccc4Cl)C(=O)N[C@@H](Cc4csc5ccccc45)C(=O)N[C@@H](CCC(N)=O)C(N)=O)(C3)NC(=O)[C@H](CO)NC(=O)[C@H](Cc3ccccc3)NC(=O)[C@H](C)NC(=O)[C@H](C)NC(=O)[C@H](CC(=O)O)NC(=O)[C@H](CC(=O)O)NC1=O)NC(=O)[C@H](Cc1ccccc1)NC(=O)[C@H](CC(=O)O)NC2=O (stereo partly drawn) [I-1045] , what is its reported Solubility?
49
